# experimentalProtocol: Stability in human subcutaneous skin homogenate
observable: Trep Concentration 120 min (µM)
Response body: numeric value in µM, unit text excluded.

[ask] Any idea what its Trep Concentration 120 min is? The compound is CCCCCC(CCC1C(O)CC2Cc3c(cccc3OCC(=O)O)CC21)OCCC (stereo not shown)
[reply] 0

[ask] Given CCCCCC(CCC1C(O)CC2Cc3c(cccc3OCC(=O)O)CC21)OC(=O)OCCOCCOC (stereo not shown) , state its recorded Trep Concentration 120 min.
[reply] 0.19

[ask] Which Trep Concentration 120 min is listed for CCCCCC(CCC1C(O)CC2Cc3c(cccc3OCC(=O)O)CC21)OC(=O)COc1ccc(OC(F)(F)F)cc1 (stereo not shown) ?
[reply] 0.283

[ask] Give the measured Trep Concentration 120 min of CCCCCC(CCC1C(O)CC2Cc3c(cccc3OCC(=O)O)CC21)OC(=O)CCN (stereo not shown) .
[reply] 0.0304

* * *

# experimentalProtocol: Stability in cryopreserved hepatocytes, human
Please use Fulfilled for Trep Concentration (μM) 120 min under 0.3 µM and Not fulfilled for everything else, ties included.

compound | qualitativeLabel
CCCCCC(CCC1C(O)CC2Cc3c(cccc3OCC(=O)O)CC21)OC(=O)C1CCCN1 (stereo not drawn) [XXXVI] | Not fulfilled

[ask] Consider CCCCCC(CCC1C(O)CC2Cc3c(cccc3OCC(=O)O)CC21)OC(=O)CCC(=O)O (stereo not drawn) [XX] . Does its Trep Concentration (μM) 120 min lie strictly below 0.3 µM?
[reply] Not fulfilled

[ask] Just wondering, is Trep Concentration (μM) 120 min of CCCCCC(CCC1C(O)CC2Cc3c(cccc3OCC(=O)O)CC21)OC(=O)c1cccc(O)c1 (stereo not drawn) [LX] below 0.3 µM?
[reply] Fulfilled

[ask] Input CCCCCC(CCC1C(O)CC2Cc3c(cccc3OCC(=O)O)CC21)OC(=O)c1ccc(C)cc1 (stereo not drawn) [XLVIII] ; condition: Trep Concentration (μM) 120 min strictly below 0.3 µM. Does it hold?
[reply] Not fulfilled

[ask] Dear colleague, could you confirm whether Trep Concentration (μM) 120 min of CCCCCC(CCC1C(O)CC2Cc3c(cccc3OCC(=O)O)CC21)Oc1ccccc1C(=O)O (stereo not drawn) [LVI] falls below 0.3 µM? Thanks.
[reply] Fulfilled

* * *

# experimentalProtocol: Hydrolysis of prodrugs to treprostinil at pH 6, 7, 8 and 40 C
# Assay type: physicochemical
# cond: pH 7, 40 C., 2 weeks
observable: Hydrolysis to treprostinil, % Area, t = 2 weeks

// worked examples, Hydrolysis to treprostinil, % Area, t = 2 weeks included
compound | assayResult
CCCCCC(CCC1C(OC(=O)CC)CC2Cc3c(cccc3OCC(=O)O)CC21)OC(=O)CC (centres unmarked) [Prodrug LXX, treprostinil dipropionate] | 0.00 % Area
CCCCCC(CCC1C(O)CC2Cc3c(cccc3OCC(=O)O)CC21)OC(=O)c1ccc(O)c(O)c1 (centres unmarked) [Prodrug LXVI] | 1.0 % Area
CCCCCC(CCC1C(O)CC2Cc3c(cccc3OCC(=O)O)CC21)OC(=O)c1ccc(O)cc1 (centres unmarked) [Prodrug LXVIII] | 0.00 % Area
CCCCCC(CCC1C(O)CC2Cc3c(cccc3OCC(=O)O)CC21)OC(=O)COc1ccccc1 (centres unmarked) [Prodrug LXV] | 1.9 % Area
CCCCCC(CCC1C(O)CC2Cc3c(cccc3OCC(=O)O)CC21)OC(=O)COc1ccc(OC(F)(F)F)cc1 (centres unmarked) [Prodrug LXIV] | 0.93 % Area

[ask] Dear colleague, I am looking for the recorded Hydrolysis to treprostinil, % Area, t = 2 weeks of the following compound: CCCCCC(CCC1C(OC(=O)OC)CC2Cc3c(cccc3OCC(=O)O)CC21)OC(=O)OC (centres unmarked) [Prodrug LXXI, treprostinil dicarbonate]
[reply] 0.00 % Area

[ask] Requested read-out: Hydrolysis to treprostinil, % Area, t = 2 weeks. Entry: CCCCCC(CCC1C(O)CC2Cc3c(cccc3OCC(=O)O)CC21)OC(=O)C12CC3CC(CC(C3)C1)C2 (centres unmarked) [Prodrug LXIX]
[reply] 0.00 % Area

[ask] Which measured Hydrolysis to treprostinil, % Area, t = 2 weeks value corresponds to CCCCCC(CCC1C(O)CC2Cc3c(cccc3OCC(=O)O)CC21)OC(=O)C(C)C (centres unmarked) [Prodrug LXVII] ?
[reply] 0.00 % Area
